Provenance of the data: patent US6784201B2

Molecular target: human IBAT (Homo sapiens)
Construct: expressed in transfected cells; host or cells: Baby hamster kidney (BHK) cells, clone H14
Sequence (Q12908 whole entry): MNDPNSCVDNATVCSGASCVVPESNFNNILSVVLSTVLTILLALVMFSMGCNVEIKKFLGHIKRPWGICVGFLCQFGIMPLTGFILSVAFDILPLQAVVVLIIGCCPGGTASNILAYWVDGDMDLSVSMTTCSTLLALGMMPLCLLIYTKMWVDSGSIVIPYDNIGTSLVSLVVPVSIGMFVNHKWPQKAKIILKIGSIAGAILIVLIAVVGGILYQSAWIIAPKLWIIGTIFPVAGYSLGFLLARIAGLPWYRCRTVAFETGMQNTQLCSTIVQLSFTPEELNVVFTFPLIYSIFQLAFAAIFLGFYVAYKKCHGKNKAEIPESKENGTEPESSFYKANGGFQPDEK
Assay: In vitro assay of IBAT-mediated uptake of [14C]-taurocholate (TC) in H14 cells
Assay type: cell-based
Details: 100 uM; read-out: In vitro % Inhibition of TC Uptake @ 100 uM
quantity_name: inhibition at 100 µM (%)

In [3]: df
Out[3]:
                                   molecule                  tested_on         quantity_name  observed_value
0  CCCC[C@]1(CC)CS(=O)(=O)c2ccccc2[C@H](c2ccccc2)[C@H]1O  human IBAT (Homo sapiens)  inhibition at 100 µM              85

(A) CCCC[C@]1(CC)CS(=O)(=O)c2ccccc2[C@H](c2ccccc2)C1=O (relative stereo)
(B) CCCC[C@]1(CC)CSc2ccccc2[C@H](c2ccccc2)C1=O (relative stereo)
Request: Sort A and B by inhibition at 100 µM descending and give the first. Write down the label attached to your selection.
Result: A
